measurement_target: T1, ICAM-1 protein antigen (R&D System) (human, UniProt P05362 28-480)
T1 construct: The assay paragraphs say only 'ICAM-1 (R&D System)'; also called antigen ICAM-1; ICAM-1 antigen
T1 sequence (P05362 28-480 limits assumed): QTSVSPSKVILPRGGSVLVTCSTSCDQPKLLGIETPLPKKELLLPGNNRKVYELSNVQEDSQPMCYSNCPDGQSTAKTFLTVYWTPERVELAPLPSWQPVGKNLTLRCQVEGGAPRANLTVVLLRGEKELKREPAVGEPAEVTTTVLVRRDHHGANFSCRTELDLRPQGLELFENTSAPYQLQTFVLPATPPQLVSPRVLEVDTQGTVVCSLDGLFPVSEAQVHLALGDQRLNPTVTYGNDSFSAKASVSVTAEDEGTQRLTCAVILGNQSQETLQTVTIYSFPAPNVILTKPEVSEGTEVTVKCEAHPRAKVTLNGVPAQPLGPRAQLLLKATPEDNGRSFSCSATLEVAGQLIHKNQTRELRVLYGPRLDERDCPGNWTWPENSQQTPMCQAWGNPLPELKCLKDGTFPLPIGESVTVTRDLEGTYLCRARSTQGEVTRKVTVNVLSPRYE
test_protocol: ELISA, ICAM-1 coated 100 ng/well, anti-human Ig-HRP
Entries and their OD 450 nm at 10 ng/ml antibody

# count of solved cases: 2
1. humanized anti-ICAM-1 antibody H4L3 (VH4 + VL3), human IgG4/kappa (antibody, V domains shown, The Arg at the VL/CL junction is in neither entry) VH: QVQLVQSGAEVKKPGASVKVSCKASGYTFTDYALHWVRQAPGQRLEWIGVISTYSGNTDYNQKFRGRVTMTRDTSATTAYLELSSLRSEDTAVYYCARSLYFGSSGFDYWGQGTALTVSS VL: DVVLTQTPLSSPVTLGQPASISCRSSQTLVYRNGNTYLHWYLQRAGQPPRLLIYKVSNRFSGVPDRFSGSGAGTDFTLKISRVEAEDVGVYFCSQNTHFPYTFGGGTKLEIKT : 0.305 OD (450 nm)
2. humanized anti-ICAM-1 antibody H5L3 (VH5 + VL3), human IgG4/kappa (antibody, V domains shown, The Arg at the VL/CL junction is in neither entry) VH: QVQLVQSGAEVKKPGASVKISCKASGYTFTDYALHWVRQAPGQRLEWMGVISTYSGNTDYNQKFRGRVTITVDKSATTAYMELSSLRSEDTAVYYCARSLYFGSSGFDYWGQGTALTVSS VL: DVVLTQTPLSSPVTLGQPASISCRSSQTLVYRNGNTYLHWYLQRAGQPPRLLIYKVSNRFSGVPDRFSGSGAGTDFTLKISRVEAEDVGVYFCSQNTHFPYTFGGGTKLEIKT : 0.35 OD (450 nm)

With those in mind, consider the next binder.
Q: Item under review: humanized anti-ICAM-1 antibody H17L1 (VH17 + VL1), human IgG4/kappa (antibody, V domains shown) VH: QVQLVQSGAEVKKPGASVKISCKGSGYTFTDYALHWVRQAPGQRLEWMGVISTYSGNTDYNQKFRGRATITVDTSASTAYMELSSLRSEDTAVYYCARSLYFGSSGFDYWGQGTALTVSS VL: DVVLTQSPLSLPVTLGQPASISCRSSQTLVYRNGNTYLHWYQQRPGQSPRLLIYKVSNRFSGVPDRFSGSGSGTDFTLKISRVEAEDVGVYFCSQNTHFPYTFGGGTKLEIKT . Reported OD 450 nm at 10 ng/ml antibody?
Ans: 0.297 OD (450 nm)
